# test_target: 5-HT2B receptors (Homo sapiens, UniProt P41595)
# Sequence (P41595 whole entry): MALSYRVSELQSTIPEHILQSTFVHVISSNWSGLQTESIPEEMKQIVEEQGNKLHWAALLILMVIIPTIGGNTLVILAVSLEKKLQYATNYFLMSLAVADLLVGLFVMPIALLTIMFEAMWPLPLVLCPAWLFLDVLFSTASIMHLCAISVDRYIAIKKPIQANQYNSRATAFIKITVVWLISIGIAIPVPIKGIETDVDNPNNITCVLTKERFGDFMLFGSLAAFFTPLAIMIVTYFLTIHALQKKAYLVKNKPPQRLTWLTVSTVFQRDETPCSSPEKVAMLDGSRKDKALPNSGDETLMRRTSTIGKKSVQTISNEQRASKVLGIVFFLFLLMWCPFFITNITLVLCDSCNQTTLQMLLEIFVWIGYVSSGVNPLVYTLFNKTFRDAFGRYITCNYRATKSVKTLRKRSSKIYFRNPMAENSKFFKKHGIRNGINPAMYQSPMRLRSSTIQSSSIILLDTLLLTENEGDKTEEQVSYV
# test: R-SAT assay 5-HT2B
# Format: cell-based
# Design: expressed in transfected cells; host or cells: NIH/3T3
measured_parameter: pEC50
The meaning of pEC50 here: minus log10 of the concentration in molar units.

pEC50 lookup needed for NCCc1c[nH]c2ccc(C(N)=O)cc12 [5-CT, 5-carboxamidotryptamine, reference compound] , thanks. 7.30

====

Assign BRET2 Eff % to each entry below.
# test_target: UniProtKB P28223
# Sequence (P28223 whole entry): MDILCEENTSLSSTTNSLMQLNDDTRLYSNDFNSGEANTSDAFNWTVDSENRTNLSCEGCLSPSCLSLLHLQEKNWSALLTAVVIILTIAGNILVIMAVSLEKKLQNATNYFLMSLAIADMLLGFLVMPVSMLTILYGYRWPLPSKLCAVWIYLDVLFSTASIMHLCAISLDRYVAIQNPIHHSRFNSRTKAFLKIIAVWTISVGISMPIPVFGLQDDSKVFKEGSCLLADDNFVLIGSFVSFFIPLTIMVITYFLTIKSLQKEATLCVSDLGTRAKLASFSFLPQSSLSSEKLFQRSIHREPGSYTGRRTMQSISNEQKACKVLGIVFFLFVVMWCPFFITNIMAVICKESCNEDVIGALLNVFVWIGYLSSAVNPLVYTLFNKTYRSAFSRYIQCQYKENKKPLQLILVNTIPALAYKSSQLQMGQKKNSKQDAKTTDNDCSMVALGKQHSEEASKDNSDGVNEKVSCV
# test: BRET2 beta-arrestin-2 recruitment assay at 5-HT2A
# Assay type: cell-based
# Set-up: expressed in transfected cells; host or cells: HEK-293T
# study_conditions: percent response of reference ligand 5-HT; mean ± SEM
All answers are understood in %, so give the number only.

Identify the measured BRET2 Eff % of CCN(CC)C(=O)N[C@H]1C[C@@H]2c3cccc4[nH]cc(c34)C[C@H]2N(C)C1 [(+)-Terguride] for UniProtKB P28223. 42

Notebook entry, UniProtKB P28223 assay: BRET2 Eff % of NCCc1c[nH]c2ccc(C(N)=O)cc12 [5-CT, 5-carboxamidotryptamine, reference compound] = ? 98

// fetch UniProtKB P28223 BRET2 Eff % for CCCN1CCCC(c2cccc(O)c2)C1 (single isomer, unassigned; (+)) [(+)-3-PPP] 42

UniProtKB P28223 / BRET2 Eff % / CCCN1CCCC(c2cccc(O)c2)C1 (single isomer, unassigned; (-)) [(−)-3-PPP] : value? 10
